Items are presented alongside their recorded Dmax.
# system.tested: BRD9 (Homo sapiens)
# protocol.details: Degradation of BRD9 (IF), immunofluorescence in MV4-11 cells, 24 hours (Assay Protocol 2)
# Format: cell-based
# Parameters: A suspension of MV4-11 cells (ATCC CRL-9591) was prepared; host or cells: MV4-11
# details: MV4-11, Assay protocol 2; BRD9 degradation; read-out: Dmax

| compound | system.tested | Dmax |
| --- | --- | --- |
| COc1cc(-c2cn(C)c(=O)c(C)c2C)cc(OC)c1CN1CCN(Cc2cccc3c2CCN(C(=O)/C(C#N)=C/C(C)(C)C)C3C)C2CC21 (mixture of isomers) | BRD9 (Homo sapiens) | 40 to 70% |

Query: Endpoint output: Dmax of COc1cc(-c2cn(C)c(=O)c(C)c2C)cc(OC)c1CN1CCN(Cc2ccc3c(c2)C(C)N(C(=O)/C(C#N)=C/C(C)(C)CCl)CC3)C2(CC2)C1 (single isomer, unassigned) . Value?
Response: > 75%

Query: Endpoint output: Dmax of COc1cc(-c2cn(C)c(=O)c(C)c2C)cc(OC)c1CN1CC[C@H](Oc2cccc(C3CCCN3C(=O)/C(C#N)=C/C(C)(C)C)c2)C1 (mixture of isomers) . Value?
Response: > 75%

----------
# system.tested: UniProt:Q9H8M2
# protocol.details: BRD9 degradation, HiBiT-BRD9 KI HEK293 (LgBiT) cells, NanoGlo Lytic Endpoint assay (Assay Protocol 1)
# Assay type: cell-based
# details: HEK293; Table 3; assay 1; 1 μM compound at 5 h of treatment; read-out: BRD9 Dmax (%)
Items are presented alongside their recorded Dmax at 1 µM.

| compound | Dmax at 1 µM |
| --- | --- |
| COc1cc(-c2cc(C)c(=O)n(C)c2)cc(OC)c1CN1CCN(Cc2cccc3c2CCN(C(=O)/C(C#N)=C/c2cccc(Br)n2)C3C)CC1 (mixture of isomers) [Compound A60] | 40 to 70% |
| COc1cc(-c2cn(C)c(=O)c(C)c2C)cc(OC)c1CN1CCN(Cc2cccc3c2CCN(C(=O)/C(C#N)=C/c2cccc(Br)n2)C3C)CC1 (mixture of isomers) [Compound A16] | 70 to 75% |
| COc1cc(-c2cn(C)c(=O)c(C)c2C)cc(OC)c1CN1CC2CC(C1)N2Cc1cccc2c1CCN(C(=O)/C(C#N)=C/C(C)(C)C)C2C (mixture of isomers) [Compound A71] | 70 to 75% |

--- query ---
Query: Endpoint output: Dmax at 1 µM of COc1cc(-c2cn(C)c(=O)c(C)c2C)cc(OC)c1CN1CCC(Oc2cccc3c2CCN(C(=O)/C(C#N)=C/c2cccc(Br)n2)C3C)CC1 (mixture of isomers) [Compound A68] . Value?
Response: > 75%

----------
# system.tested: BRD9 (Homo sapiens, UniProt Q9H8M2)
# Sequence (Q9H8M2 whole entry): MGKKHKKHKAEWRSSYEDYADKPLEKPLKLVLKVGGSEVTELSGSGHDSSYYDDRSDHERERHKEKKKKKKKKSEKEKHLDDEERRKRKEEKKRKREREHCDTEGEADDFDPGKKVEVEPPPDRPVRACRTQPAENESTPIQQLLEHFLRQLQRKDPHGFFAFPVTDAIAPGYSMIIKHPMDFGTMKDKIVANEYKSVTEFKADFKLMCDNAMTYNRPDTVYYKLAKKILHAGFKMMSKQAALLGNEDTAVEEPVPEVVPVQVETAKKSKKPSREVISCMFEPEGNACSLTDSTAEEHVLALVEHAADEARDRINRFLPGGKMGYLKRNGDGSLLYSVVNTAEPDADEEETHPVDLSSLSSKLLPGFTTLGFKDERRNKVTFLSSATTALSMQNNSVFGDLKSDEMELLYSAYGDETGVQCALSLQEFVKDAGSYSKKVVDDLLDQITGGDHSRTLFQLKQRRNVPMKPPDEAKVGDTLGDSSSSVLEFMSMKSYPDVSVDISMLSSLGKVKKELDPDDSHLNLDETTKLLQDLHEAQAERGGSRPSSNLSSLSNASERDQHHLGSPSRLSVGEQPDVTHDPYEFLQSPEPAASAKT
# protocol.details: Degradation of BRD9 (IF), immunofluorescence in MV4-11 cells, 24 hours (Assay Protocol 2)
# Format: cell-based
# Parameters: A suspension of MV4-11 cells (ATCC CRL-9591) was prepared; host or cells: MV4-11
# details: MV4-11, Assay protocol 2; BRD9 degradation; read-out: Dmax
Items are presented alongside their recorded Dmax.

Worked examples follow.
| molecule | Dmax |
| --- | --- |
| COc1cc(-c2cn(C)c(=O)c(C)c2C)ccc1OC1CCC(Cc2cccc3c2CCN(C(=O)/C(C#N)=C/C(C)(C)N2CCN(C)CC2)C3C)CC1 (centres unmarked) | 70 to 75% |
| COc1cc(-c2cn(C)c(=O)c(C)c2C)cc(OC)c1CN1CCN(Cc2cccc3c2CCN(C(=O)/C(C#N)=C/c2cccc(Br)n2)C3C)C(C(C)C)C1 (mixture of isomers) | > 75% |
| COc1cc(-c2cn(C)c(=O)c(C)c2C)cc(OC)c1CN1CCCN(Cc2cccc3c2CCN(C(=O)/C(C#N)=C/c2cccc(Br)n2)C3C)CC1 (mixture of isomers) | 70 to 75% |
| COc1cc(-c2cn(C)c(=O)c(C)c2C)cc(OC)c1C(=O)N1CCN(Cc2cccc(C3CCCN3C(=O)/C(C#N)=C/C(C)(C)C)c2)CC1 (mixture of isomers) | > 75% |
| COCC1(OC)c2cccc(CN3CCN(Cc4c(OC)cc(-c5cn(C)c(=O)c(C)c5C)cc4OC)CC34CC4)c2CCN1C(=O)/C(C#N)=C/C(C)(C)C (mixture of isomers) | > 75% |

Query: Endpoint output: Dmax of COc1cc(-c2cn(C)c(=O)c(C)c2C)cc(OC)c1CN1CCN(c2cccc(C3CCCN3C(=O)/C(C#N)=C/C(C)C)c2)CC1 (mixture of isomers) . Value?
Response: > 75%

Query: Endpoint output: Dmax of COc1cc(-c2cn(C)c(=O)c(C)c2C)cc(OC)c1CN1CCN(c2cccc(C3CCCN3C(=O)/C(C#N)=C/C(C)(C)C)c2)CC1 (mixture of isomers) . Value?
Response: > 75%

Query: Endpoint output: Dmax of CCC1c2cccc(CN3CCN(Cc4c(OC)cc(-c5cn(C)c(=O)c(C)c5C)cc4OC)CC34CC4)c2CCN1C(=O)/C(C#N)=C/C(C)(C)C (single isomer, unassigned) [Compound C94] . Value?
Response: > 75%

Query: Endpoint output: Dmax of COc1cc(-c2cn(C)c(=O)c(C)c2C)cc(OC)c1CN1CC2CCC1CN2Cc1cccc2c1CCN(C(=O)/C(C#N)=C/C(C)(C)C)C2C (mixture of isomers) . Value?
Response: 40 to 70%

Query: Endpoint output: Dmax of COc1cc(-c2cn(C)c(=O)c(C)c2C)cc(OC)c1CN1CCC(Cc2cccc3c2CCN(C(=O)/C(C#N)=C/C(C)(C)C)C3C)CC1 (mixture of isomers) . Value?
Response: 40 to 70%

Query: Endpoint output: Dmax of COc1cc(-c2cn(C)c(=O)c(C)c2C)cc(OC)c1CN1CCN(Cc2cccc3c2CCN(C(=O)/C(C#N)=C/C2(C)CC2)C3C)CC1 (mixture of isomers) . Value?
Response: 40 to 70%

Query: Endpoint output: Dmax of COc1cc(-c2cn(C)c(=O)c(C)c2C)cc(OC)c1CN1CCCN(Cc2cccc3c2CCN(C(=O)/C(C#N)=C/C(C)(C)C)[C@@H]3C)CC1 (single isomer, unassigned) . Value?
Response: > 75%

Query: Endpoint output: Dmax of CCCC(c1ccc(C(=O)N(C)CCCCCCC(=O)N2CCN(Cc3c(OC)cc(-c4cn(C)c(=O)c(C)c4C)cc3OC)CC2)cc1)N(C)C(=O)/C(C#N)=C/c1nccs1 (mixture of isomers) . Value?
Response: 40 to 70%

Query: Endpoint output: Dmax of COc1cc(-c2cn(C)c(=O)c(C)c2C)cc(OC)c1CN1CCN(Cc2cccc3c2CCN(C(=O)/C(C#N)=C/C(C)(C)C)C3)C2(CC2)C1 . Value?
Response: > 75%

Query: Endpoint output: Dmax of CCCC(c1ccc(C(=O)N(C)CCCCC(=O)N2CCN(Cc3c(OC)cc(-c4cn(C)c(=O)c(C)c4C)cc3OC)CC2)cc1)N(C)C(=O)/C(C#N)=C/c1nccs1 (mixture of isomers) . Value?
Response: 40 to 70%

Query: Endpoint output: Dmax of COc1cc(-c2cn(C)c(=O)c(C)c2C)cc(OC)c1CN1CCN(Cc2cccc3c2CCN(C(=O)/C(C#N)=C/C(C)(C)CF)C3C(C)C)CC12CC2 (mixture of isomers) [Compound C25] . Value?
Response: > 75%
